- System: HIV-1 LAI
- Procedure summary: Two-drug combination antiviral assay with Compound 1 (combination indices, Chou and Rideout)
- Type: cell-based
- Assay setup: combination with Compound 1; EC50 ratio 2.5:1 (Compound 1 to comparator); 95% CI in parenthesis
- Procedure: Virus and cell lines. The T-cell lines, MT-2 and PM-1 were obtained through the AIDS Research and Reference Reagent Program, NIAID, and were contributed by Dr. D. Richman and Dr. R. Gallo, respectively. […] Drug Susceptibility and Cytotoxicity Assays. […] On day-five post-infection, 20 μl from each well was harvested and quantitated by a reverse transcriptase (RT) assay, or in samples involving non-nucleoside RT inhibitors, an MTS assay. […] Cell viability was determined by an MTS assay. […]
Observation type: Combination Indices at 75% HIV Inhibition (Confidence Interval)

>>> readout_value("Nc1nc(NC2CC2)c2ncn([C@H]3C=C[C@@H](CO)C3)c2n1 [Abacavir]")
"0.42 (0.30, 0.53)"
>>> readout_value("CON(Cc1ccc(F)cc1)C(=O)C=C(O)C(=O)O [Compound 2]")
"0.66 (0.41, 0.92)"

Query :: What does the data say about its Combination Indices at 75% HIV Inhibition (Confidence Interval)? Entry: Cc1c(O)cccc1C(=O)N[C@@H](CSc1ccccc1)[C@H](O)CN1C[C@H]2CCCC[C@H]2C[C@H]1C(=O)NC(C)(C)C [Nelfinavir]
Result :: 0.40 (0.29, 0.52)

Query :: // repeat for CC(C)c1nc(CN(C)C(=O)N[C@H](C(=O)N[C@@H](Cc2ccccc2)C[C@H](O)[C@H](Cc2ccccc2)NC(=O)OCc2cncs2)C(C)C)cs1 [Ritonavir] and report
Result :: 0.66 (0.29, 1.04)

====

Each entry below carries its recorded Combination Indices at 50% HIV Inhibition (Confidence Interval).
- Test system: HIV-1 LAI
- Procedure summary: Two-drug combination antiviral assay with Compound 1 (combination indices, Chou and Rideout)
- Assay type: cell-based
- Assay setup: combination with Compound 1; EC50 ratio 1:1 (Compound 1 to comparator); 95% CI in parenthesis

Previously resolved entries follow.
>>> readout_value("Cc1c(O)cccc1C(=O)N[C@@H](CSc1ccccc1)[C@H](O)CN1C[C@H]2CCCC[C@H]2C[C@H]1C(=O)NC(C)(C)C [Nelfinavir]")
"0.38 (6.31, 0.46)"
>>> readout_value("CC(C)(C)NC(=O)[C@@H]1C[C@@H]2CCCC[C@@H]2CN1C[C@@H](O)[C@H](Cc1ccccc1)NC(=O)[C@H](CC(N)=O)NC(=O)c1ccc2ccccc2n1 [Saquinavir]")
"0.50 (0.40, 0.61)"
>>> readout_value("O=C1Nc2ccc(Cl)cc2[C@@](C#CC2CC2)(C(F)(F)F)O1 [Efavirenz]")
"0.93 (0.74, 1.12)"

Field: next compound
Query :: Param readout = Combination Indices at 50% HIV Inhibition (Confidence Interval); param system = HIV-1 LAI; param query = Nc1nc(=O)n([C@@H]2CS[C@H](CO)O2)cc1F [Emtricitabine] ; response: value
Result :: 0.56 (0.49, 0.62)

====

Each entry below carries its recorded Combination Indices at 50% HIV Inhibition (Confidence Interval).
- Tested on: HIV-1 LAI
- Procedure summary: Two-drug combination antiviral assay with Compound 1 (combination indices, Chou and Rideout)
- Assay type: cell-based
- Assay setup: combination with Compound 1; EC50 ratio 2.5:1 (Compound 1 to comparator); 95% CI in parenthesis

Previously resolved entries follow.
>>> readout_value("CC(C)c1nc(CN(C)C(=O)N[C@H](C(=O)N[C@@H](Cc2ccccc2)C[C@H](O)[C@H](Cc2ccccc2)NC(=O)OCc2cncs2)C(C)C)cs1")
"0.40 (0.23, 0.57)"
>>> readout_value("CC(C)CN(C[C@@H](O)[C@H](Cc1ccccc1)NC(=O)O[C@H]1CCOC1)S(=O)(=O)c1ccc(N)cc1")
"0.20 (0.12, 0.28)"
>>> readout_value("Nc1ccn([C@@H]2CS[C@H](CO)O2)c(=O)n1")
"0.18 (0.13, 0.22)"

Query :: What does the data say about its Combination Indices at 50% HIV Inhibition (Confidence Interval)? Entry: Nc1nc(=O)n([C@@H]2CS[C@H](CO)O2)cc1F
Result :: 0.22 (0.20, 0.24)

Query :: // repeat for Cc1cn([C@H]2C[C@H](N=[N+]=[N-])[C@@H](CO)O2)c(=O)[nH]c1=O and report
Result :: 0.04 (0.03, 0.04)

Query :: // repeat for C[C@H](Cn1cnc2c(N)ncnc21)OCP(=O)(O)O and report
Result :: 0.16 (0.13, 0.19)

Query :: // repeat for Nc1nc(NC2CC2)c2ncn([C@H]3C=C[C@@H](CO)C3)c2n1 and report
Result :: 0.23 (0.19, 0.28)

Query :: // repeat for Cc1cccc(C)c1OCC(=O)N[C@@H](Cc1ccccc1)[C@@H](O)C[C@H](Cc1ccccc1)NC(=O)[C@H](C(C)C)N1CCCNC1=O and report
Result :: 0.65 (0.44, 0.86)

====

- Test system: HIV-1 LAI
- Procedure summary: Two-drug combination antiviral assay with Compound 1 (combination indices, Chou and Rideout)
- Assay type: cell-based
- Assay setup: combination with Compound 1; EC50 ratio 1:1 (Compound 1 to comparator); 95% CI in parenthesis
Observation type: Combination Indices at 50% HIV Inhibition (Confidence Interval)

Previously resolved entries follow.
>>> readout_value("Cc1cn([C@H]2C=C[C@@H](CO)O2)c(=O)[nH]c1=O")
"0.25 (0.18, 0.33)"
>>> readout_value("Nc1ccn([C@@H]2CS[C@H](CO)O2)c(=O)n1")
"0.57 (0.41, 0.73)"
>>> readout_value("C[C@H](Cn1cnc2c(N)ncnc21)OCP(=O)(O)O")
"0.11 (0.09, 0.13)"

Field: next compound
Query :: What does the data say about its Combination Indices at 50% HIV Inhibition (Confidence Interval)? Entry: Cc1cccc(C)c1OCC(=O)N[C@@H](Cc1ccccc1)[C@@H](O)C[C@H](Cc1ccccc1)NC(=O)[C@H](C(C)C)N1CCCNC1=O
Result :: 0.68 (0.49, 0.87)

====

Each entry below carries its recorded Combination Indices at 90% HIV Inhibition (Confidence Interval).
- Tested on: HIV-1 LAI
- Procedure summary: Two-drug combination antiviral assay with Compound 1 (combination indices, Chou and Rideout)
- Assay type: cell-based
- Assay setup: combination with Compound 1; EC50 ratio 1:2.5 (Compound 1 to comparator); 95% CI in parenthesis

Previously resolved entries follow.
>>> readout_value("O=c1[nH]cnc2c1ncn2[C@H]1CC[C@@H](CO)O1 [Didanosine]")
"0.16 (0.10, 0.21)"
>>> readout_value("CC(C)Nc1cccnc1N1CCN(C(=O)c2cc3cc(NS(C)(=O)=O)ccc3[nH]2)CC1 [Delavirdine]")
"0.81 (0.34, 1.29)"
>>> readout_value("CON(Cc1ccc(F)cc1)C(=O)C=C(O)C(=O)O [Compound 2]")
"0.48 (0.26, 0.69)"
>>> readout_value("CC(C)c1nc(CN(C)C(=O)N[C@H](C(=O)N[C@@H](Cc2ccccc2)C[C@H](O)[C@H](Cc2ccccc2)NC(=O)OCc2cncs2)C(C)C)cs1 [Ritonavir]")
"0.40 (0.19, 0.60)"
>>> readout_value("c1cc(CN2CCCNCCNCCCNCC2)ccc1CN1CCCNCCNCCCNCC1 [AMD-3100]")
"0.58 (0.27, 0.89)"
>>> readout_value("Cc1cccc(C)c1OCC(=O)N[C@@H](Cc1ccccc1)[C@@H](O)C[C@H](Cc1ccccc1)NC(=O)[C@H](C(C)C)N1CCCNC1=O [Lopinavir]")
"0.42 (0.21, 0.64)"
>>> readout_value("Nc1nc(NC2CC2)c2ncn([C@H]3C=C[C@@H](CO)C3)c2n1 [Abacavir]")
"1.22 (0.65, 1.79)"

Query :: What does the data say about its Combination Indices at 90% HIV Inhibition (Confidence Interval)? Entry: Nc1ccn([C@@H]2CS[C@H](CO)O2)c(=O)n1 [Lamivudine]
Result :: 0.70 (0.33, 1.06)

====

- Tested on: HIV-1 LAI
- Procedure summary: Two-drug combination antiviral assay with Compound 1 (combination indices, Chou and Rideout)
- Format: cell-based
- Assay setup: combination with Compound 1; EC50 ratio 2.5:1 (Compound 1 to comparator); 95% CI in parenthesis
Observation type: Combination Indices at 75% HIV Inhibition (Confidence Interval)

>>> readout_value("Cc1cccc(C)c1OCC(=O)N[C@@H](Cc1ccccc1)[C@@H](O)C[C@H](Cc1ccccc1)NC(=O)[C@H](C(C)C)N1CCCNC1=O")
"0.77 (0.43, 1.11)"
>>> readout_value("Cc1cn([C@H]2C[C@H](N=[N+]=[N-])[C@@H](CO)O2)c(=O)[nH]c1=O")
"0.04 (0.03, 0.05)"
>>> readout_value("Nc1ccn([C@@H]2CS[C@H](CO)O2)c(=O)n1")
"0.38 (0.26, 0.49)"
>>> readout_value("Nc1ccn([C@H]2CC[C@@H](CO)O2)c(=O)n1")
"0.28 (0.22, 0.34)"
>>> readout_value("Cc1ccnc2c1NC(=O)c1cccnc1N2C1CC1")
"0.76 (0.54, 0.98)"
>>> readout_value("c1cc(CN2CCCNCCNCCCNCC2)ccc1CN1CCCNCCNCCCNCC1")
"0.62 (0.18, 0.90)"

Query :: Param readout = Combination Indices at 75% HIV Inhibition (Confidence Interval); param system = HIV-1 LAI; param query = CC(C)(C)NC(=O)[C@@H]1C[C@@H]2CCCC[C@@H]2CN1C[C@@H](O)[C@H](Cc1ccccc1)NC(=O)[C@H](CC(N)=O)NC(=O)c1ccc2ccccc2n1 ; response: value
Result :: 0.31 (0.25, 0.37)

Query :: // repeat for CC(C)CN(C[C@@H](O)[C@H](Cc1ccccc1)NC(=O)O[C@H]1CCOC1)S(=O)(=O)c1ccc(N)cc1 and report
Result :: 0.60 (0.28, 0.92)

Query :: // repeat for Cc1cn([C@H]2C=C[C@@H](CO)O2)c(=O)[nH]c1=O and report
Result :: 0.39 (0.32, 0.47)

Query :: // repeat for O=c1[nH]cnc2c1ncn2[C@H]1CC[C@@H](CO)O1 and report
Result :: 0.96 (0.70, 1.21)

Query :: // repeat for CC(C)(C)NC(=O)[C@@H]1CN(Cc2cccnc2)CCN1C[C@@H](O)C[C@@H](Cc1ccccc1)C(=O)N[C@H]1c2ccccc2C[C@H]1O and report
Result :: 0.67 (0.45, 0.89)

Query :: // repeat for Nc1nc(=O)n([C@@H]2CS[C@H](CO)O2)cc1F and report
Result :: 0.32 (0.28, 0.37)

Query :: // repeat for O=C1Nc2ccc(Cl)cc2[C@@](C#CC2CC2)(C(F)(F)F)O1 and report
Result :: 0.83 (0.55, 1.12)

Each recorded value in this set is attributed to patent US20050215544A1.
